Just for reference, patent US20240141046A1 is where these values come from.

- system_tested: T1, recombinant human CTLA4-Fc (Sino Biological, 11159-H03H) (human, UniProt P16410 36-162)
- T1 construct: bought; also called human CTLA4 fused with human FC fragment
- T1 sequence (looked up): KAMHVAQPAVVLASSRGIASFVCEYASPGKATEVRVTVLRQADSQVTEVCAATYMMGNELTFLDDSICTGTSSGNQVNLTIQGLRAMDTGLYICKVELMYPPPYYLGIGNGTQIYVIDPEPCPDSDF
- method: ELISA; EC50 over EC50 of TY21580
Measured Masking efficiency accompanies every entry in the list below.
I only need the number, in fold, no unit after it.

State its Masking efficiency for this binder: TY22776 (antibody, V domains shown) VH: EVQLVESGGGLVQPGGSLRLSCAASGYSISSGYHWSWIRQAPGKGLEWLARIDWDDDKYYSTSLKSRLTISRDNSKNTLYLQLNSLRAEDTAVYYCARSYVYFDYWGQGTLVTVSS VL: EVGSSDCVPYYYACAYSGRSAGGGGTPLGLAGSGGSDIQLTQSPSSLSASVGDRVTITCRASQSVRGRFLAWYQQKPGKAPKLLIYDASNRATGIPSRFSGSGSGTDFTLTISSLQPEDFATYYCQQSSSWPPTFGQGTKVEIKR 296

State its Masking efficiency for this binder: TY22402 (antibody, IgG1, V domains shown, also called B13180 (peptide name)) VH: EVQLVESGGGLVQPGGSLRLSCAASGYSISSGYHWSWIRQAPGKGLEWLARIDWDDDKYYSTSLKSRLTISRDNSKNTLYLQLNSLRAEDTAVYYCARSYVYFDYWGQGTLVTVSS VL: EVGSYIVHHSDCDAFYPYCDSSGRSAGGGGSPLGLAGSGGSDIQLTQSPSSLSASVGDRVTITCRASQSVRGRFLAWYQQKPGKAPKLLIYDASNRATGIPSRFSGSGSGTDFTLTISSLQPEDFATYYCQQSSSWPPTFGQGTKVEIKR 243
